# TARGET_OF_ASSAY: Microphthalmia-associated transcription factor (Homo sapiens) (UniProt O75030)
# Sequence (O75030 whole entry, looked up): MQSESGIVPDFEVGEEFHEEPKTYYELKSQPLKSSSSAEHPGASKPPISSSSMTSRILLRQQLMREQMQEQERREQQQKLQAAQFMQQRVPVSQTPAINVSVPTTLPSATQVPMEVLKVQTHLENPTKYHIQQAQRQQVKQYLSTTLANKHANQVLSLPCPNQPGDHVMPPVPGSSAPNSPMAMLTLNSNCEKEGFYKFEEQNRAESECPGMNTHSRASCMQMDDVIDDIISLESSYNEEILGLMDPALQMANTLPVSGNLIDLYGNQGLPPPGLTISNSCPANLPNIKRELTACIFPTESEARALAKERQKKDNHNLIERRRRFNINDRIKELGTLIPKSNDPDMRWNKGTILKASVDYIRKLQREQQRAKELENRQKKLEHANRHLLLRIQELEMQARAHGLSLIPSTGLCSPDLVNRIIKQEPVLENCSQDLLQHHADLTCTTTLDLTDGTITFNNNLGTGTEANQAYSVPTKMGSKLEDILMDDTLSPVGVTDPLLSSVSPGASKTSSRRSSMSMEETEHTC
# EXPERIMENT_NOTES: MITF inhibitors, primary screen, biochemical, AlphaScreen, human (AID 1259374);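 also: 0% = vehicle wells with protein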
# APPLIED_CONDITIONS: AlphaScreen MITF homodimerization, bead proximity signal; at 2.6 µM; active compounds read high
Screen size: about 650,000 compounds; about 5,900 (0.91%) were called active. The full list was thinned out, with actives kept by preference.
Provide the reported inhibition of each item.
Kindly answer with a numeric value in %, unit omitted.

Exercise: # query: inhibition | item COc1cccc(CN2CCN(Cc3ccc(SC)cc3)CC2)c1OC | system: Microphthalmia-associated transcription factor (Homo sapiens) (UniProt O75030)
Key: 41

Exercise: # query: inhibition | item O=C(Nc1ccc(Cl)c(Cl)c1)C1C2C=CC3(O2)C1C(=O)N(Cc1cccs1)C3C(=O)NC1CCCCC1 (stereo not given) | system: Microphthalmia-associated transcription factor (Homo sapiens) (UniProt O75030)
Key: 6.14

Exercise: # query: inhibition | item COc1cccc(NC(=O)C2CCN(S(=O)(=O)c3ccc4c(c3)oc(=O)n4C)CC2)c1 | system: Microphthalmia-associated transcription factor (Homo sapiens) (UniProt O75030)
Key: -1.03

Exercise: # query: inhibition | item Cc1csc(-c2cnc3ccc(NCCc4cccnc4)nn23)c1 | system: Microphthalmia-associated transcription factor (Homo sapiens) (UniProt O75030)
Key: -21.5

Exercise: # query: inhibition | item C=CCOc1ccc(/C=C2\SC(=S)NC2=O)cc1 | system: Microphthalmia-associated transcription factor (Homo sapiens) (UniProt O75030)
Key: 12.6

Exercise: # query: inhibition | item Cn1c(=O)oc2cc(S(=O)(=O)N3CCC(C(=O)NC(C)(C)C)CC3)ccc21 | system: Microphthalmia-associated transcription factor (Homo sapiens) (UniProt O75030)
Key: 70.2

Exercise: # query: inhibition | item COc1cccc(CN2CCN(C/C=C/c3ccccc3)CC2)c1OC | system: Microphthalmia-associated transcription factor (Homo sapiens) (UniProt O75030)
Key: 63.1

Exercise: # query: inhibition | item Cn1c(=O)oc2cc(S(=O)(=O)N3CCC(C(=O)NCCC4=CCCCC4)CC3)ccc21 | system: Microphthalmia-associated transcription factor (Homo sapiens) (UniProt O75030)
Key: -12.8

Exercise: # query: inhibition | item COc1cccc(CN2CCOCC2)c1OC | system: Microphthalmia-associated transcription factor (Homo sapiens) (UniProt O75030)
Key: -5.85

Exercise: # query: inhibition | item Cn1c(CC(=O)NNC(=O)CNC(=O)c2ccc(Br)cc2)nc2ccccc21 | system: Microphthalmia-associated transcription factor (Homo sapiens) (UniProt O75030)
Key: 8.22

Origin of values: PubChem BioAssay AID1259374
